Cited source for all entries: ChEMBL document CHEMBL3507680

experiment-summary: Human HepG2 cell viability assay in 384 well format
Type: toxicity, cell-based
Parameters: dose 125 nL, time 70.5 hour; concentration not given beside the values
reported-conditions: HepG2 cells, read-out: Inhibition
reported-metric: cytotoxicity at 70.5 h (%)
Write the value in % as a bare number.

Look over these answered cases.
>>> reported("Cc1ccsc1CCNC(=O)CCC(=O)NC1CCCC1")
-15.3
>>> reported("CCN1CCN(C(=O)Cn2ncc3c2c(C)nn3C(C)C)CC1")
-4.28
>>> reported("CC(C)(C#N)C(=O)N1CCCC(c2cc(C(F)(F)F)[nH]n2)C1 (configuration not stated)")
-0.389
>>> reported("Cc1cc(C)c2[nH]c(C(=O)NCCN3CCCC3=O)c(C)c2c1")
23.6
>>> reported("CN(C)CC(=O)N1Cc2nnn(C)c2C(COCc2ccccn2)C1 (configuration not stated)")
9.45
>>> reported("CC(C)Cc1nc(OCC(N)=O)c(C#N)c2c1CCCC2")
-9.41
>>> reported("CCC[C@H]1CN(CCS(C)(=O)=O)C[C@@H]1NC(=O)c1ccn(C)n1")
-4.29
>>> reported("Cc1nc[nH]c1CN1CCOC(c2ccc(Cl)c(Cl)c2)C1 (configuration not stated)")
-2.06

Identify measured cytotoxicity at 70.5 h corresponding to "Cn1cc(CNCC2(N3CCCCC3)Cc3ccccc3C2)cn1"
-4.33

Identify measured cytotoxicity at 70.5 h corresponding to "Cc1ccc2c(c1)c(C)cc(=O)n2CCC#N"
0.982

Identify measured cytotoxicity at 70.5 h corresponding to CC(=O)N1CCN(Cc2c(C)sc3ccccc23)CC(O)C1 (configuration not stated)
-3.67

Identify measured cytotoxicity at 70.5 h corresponding to "CCOC(=O)Cn1cccc(S(=O)(=O)N2CCCC2)c1=O"
-26.6
